System: PC-3
Experiment: Neutral comet assay
Format: cell-based, human
Conditions: human, 24 h
parameter.measured: mean tail DNA % (double-strand breaks) (%)

compound_structure_string=Cc1nn(-c2ccc(S(=O)(=O)N3CCCCC3)cc2)c2nn3nnnc3nc12 unit_abbrev=% readout_value=6.07

A. Cc1nn(-c2ccc(S(=O)(=O)N3CCOCC3)cc2)c2nn3nnnc3nc12
B. Cc1nn(-c2ccc(S(=O)(=O)N3CCN(C)CC3)cc2)c2nn3nnnc3nc12
Consider entries A and B . Which has the numerically lower mean tail DNA % (double-strand breaks)? # respond with the chosen item's label
B
(B: 4.45%, A: 8%)

====

Each record here notes measured viability at 24 h, 3 µM.
Experiment: Alamar blue assay
Type: cell-based
Details: human, PC-3 cells, PC-3, 3 µM
Expressed in %, but write only the number.

compound_structure_string=Cc1nn(-c2ccc(S(=O)(=O)N3CCCCC3)cc2)c2nn3nnnc3nc12 readout_value=88.4

Now consider the entry below.
Dear colleague, please send me the reported viability at 24 h, 3 µM for Cc1nn(-c2ccc(S(=O)(=O)NCCN3CCOCC3)cc2)c2nn3nnnc3nc12 when you can.
55.8

====

Tested on: PC-3
Assay: Alkaline comet assay
Assay type: cell-based, human
Settings: PC-3, alkaline, IC50 concentration, 24 h
Method: The alkaline version of the comet assay was performed according to Singh et al. (1988), with modifications. BxPC-3 and PC-3 cancer cells and normal human fibroblasts (WI-38) were seeded at a density of 1.2 × 10^5/mL onto 12-well plates. […] The experimental design included negative controls (cells treated with DMSO at 0.4% for 24 h at 37 °C). Cells were left for incubation for another 24 h (37 °C; 5% CO2). […]
parameter.measured: median tail DNA % (%)

The following compounds have reported results that may help.
compound_structure_string=Cc1nn(-c2ccc(S(=O)(=O)N3CCCCC3)cc2)c2nn3nnnc3nc12 readout_value=3.35
compound_structure_string=Cc1nn(-c2ccc(S(=O)(=O)N3CCN(C)CC3)cc2)c2nn3nnnc3nc12 readout_value=2.32

P. Cc1nn(-c2ccc(S(=O)(=O)N3CCOCC3)cc2)c2nn3nnnc3nc12
Q. Cc1nn(-c2ccc(S(=O)(=O)NCCN3CCOCC3)cc2)c2nn3nnnc3nc12
Please state the entry with greater median tail DNA % among P and Q . Lab log: write the label of the selected item as the result.
P

====

System: WI-38
Assay: Alkaline comet assay
Format: cell-based, human
Conditions: WI-38, alkaline, IC50 concentration, 24 h
parameter.measured: median tail DNA % (%)

Sample answers from the record:
molecule="Cc1nn(-c2ccc(S(=O)(=O)NCCN3CCOCC3)cc2)c2nn3nnnc3nc12 [MM134]" test_target=WI-38 parameter_measured="median tail DNA %" readout_value=1.5
molecule="Cc1nn(-c2ccc(S(=O)(=O)N3CCN(C)CC3)cc2)c2nn3nnnc3nc12 [MM137]" test_target=WI-38 parameter_measured="median tail DNA %" readout_value=0.09

P. Cc1nn(-c2ccc(S(=O)(=O)N3CCCCC3)cc2)c2nn3nnnc3nc12 [MM139]
Q. Cc1nn(-c2ccc(S(=O)(=O)N3CCOCC3)cc2)c2nn3nnnc3nc12 [MM136]
Return label of the item with the larger median tail DNA %. Candidates: P , Q . Let me know the label of the one you choose.
P
(P: 0.085%, Q: 0.01%)
